STUDY_TARGET: Mucolipin-3 (Homo sapiens)
TEST_NAME: human TRPML3 channel agonists, primary screen, cell-based, HEK293 TRPML3-YFP, Fluo-8 calcium fluorescence, 3 µM (AID 1448)
DETAILS: at 3 µM, active compounds read high, 100% = the carbachol control signal
Among all 220,000 compounds or so, about 630 (0.29%) were called active. For the sample, actives were picked, then their nearest neighbours and some compounds at random.
MEASURE: activation (%)
Report only the number, with the unit % understood.

COMPOUND	NUMERIC_READOUT
CCCCCCCCCCOC(=O)C[N+](C)(C)CC1CCCCC1O (stereo not given)	-0.99

Task: Give activation for the following compound: Cn1c(SCC(=O)c2ccc(F)cc2)nnc1-c1ccccn1
Result: -0.33

Task: Give activation for the following compound: CC(C)(C)OC(=O)N1CCC(NC(=O)c2[nH]cnc2C(=O)N[C@@H](Cc2ccccc2)C(=O)OCc2ccccc2)CC1
Result: 0.25

Task: Give activation for the following compound: CC(C)c1c(O)nc(SCCOc2ccc(Cl)cc2)[nH]c1=O
Result: 0.56

Task: Give activation for the following compound: COc1ccc(S(=O)(=O)NC(C)C(=O)Nc2cccc([N+](=O)[O-])c2)cc1 (stereo not given)
Result: -0.47

###

STUDY_TARGET: Mucolipin-3 (Homo sapiens) (UniProt Q8TDD5)
Sequence (Q8TDD5 whole entry, looked up): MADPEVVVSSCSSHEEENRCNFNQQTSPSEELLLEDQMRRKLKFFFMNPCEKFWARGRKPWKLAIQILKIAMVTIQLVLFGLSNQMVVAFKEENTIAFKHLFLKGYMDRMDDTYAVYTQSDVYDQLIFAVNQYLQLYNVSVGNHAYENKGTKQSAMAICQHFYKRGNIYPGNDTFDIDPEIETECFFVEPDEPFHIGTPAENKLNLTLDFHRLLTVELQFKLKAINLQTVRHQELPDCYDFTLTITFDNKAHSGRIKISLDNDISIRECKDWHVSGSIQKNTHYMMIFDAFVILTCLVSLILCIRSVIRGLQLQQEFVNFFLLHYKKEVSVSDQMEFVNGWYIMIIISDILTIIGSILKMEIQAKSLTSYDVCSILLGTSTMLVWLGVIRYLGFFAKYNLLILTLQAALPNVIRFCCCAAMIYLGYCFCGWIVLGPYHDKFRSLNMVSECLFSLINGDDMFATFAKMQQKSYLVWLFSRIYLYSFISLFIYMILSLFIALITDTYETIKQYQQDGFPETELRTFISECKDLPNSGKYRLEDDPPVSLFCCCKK
TEST_NAME: human TRPML3 channel agonists, primary screen, cell-based, HEK293 TRPML3-YFP, Fluo-8 calcium fluorescence, 3 µM (AID 1448)
DETAILS: at 3 µM, 100% = the carbachol control signal
The campaign covered roughly 220,000 compounds. About 630 (0.29%) were called active.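 Rule for the calls: active = activation above its plate's cutoff, the mean activation of the plate's test wells plus 3 SD (cut at about 12% in these data); inactive = the rest.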 The list comes from a sample in which actives are over-represented; it also holds close analogues and randomly drawn compounds.
Would you mind answering with one of these outcomes? YES (active), NO (inactive)

Check out these entries, answers already filled in.
COMPOUND	GROUP
COc1ccc(N(Cc2ccccc2)S(=O)(=O)c2cccc(C(=O)O)c2)cc1	NO
COc1ccc(C[C@H]2CN3C(=NC[C@H]3C)N2CCNC(=O)CCC2CCCCC2)cc1	NO
CC(C)C(=O)Nc1cccc(NC(=S)NC(=O)C(c2ccccc2)c2ccccc2)c1	NO
CCN1CCN(c2nc(Nc3cccc(F)c3)nc(N)c2[N+](=O)[O-])CC1	NO
Cc1cccn2c(=O)c(/C=C3\SC(=S)N(CC(C)C)C3=O)c(NCCCOC(C)C)nc12	NO
O=C(Nc1ccccc1N1CCOCC1)c1csc2c1CCCC2	NO
COc1cc(OC)cc(C(=O)N[C@H](C(=O)Nc2nc3ccccc3[nH]2)C(C)C)c1	NO
O=[N+]([O-])/C=C1\CCCCCN1	NO
CCCCN(CCCC)CC(O)Cn1c2ccccc2c(=O)c2ccccc21 (configuration not stated)	NO
COCCNc1cc(NCCOC)c([N+](=O)[O-])cc1[N+](=O)[O-]	NO

Task: Any idea what this test logged for CCC(C(=O)Nc1ccc(C(C)C)cc1)c1ccccc1 (configuration not stated) ?
Result: YES

Task: Any idea what this test logged for CC(C[N+](C)(C)C)OC(N)=O (configuration not stated) ?
Result: NO

Task: Any idea what this test logged for COc1cc(N/C=C2\CC(=O)NC(C)=C2C#N)cc(OC)c1OC ?
Result: NO

Task: Any idea what this test logged for COCCNC(=O)C(OC(=O)c1cccs1)c1ccc(F)cc1 (configuration not stated) ?
Result: NO

Task: Any idea what this test logged for CCOc1ccc(Br)cc1S(=O)(=O)Nc1ccc(C(=O)OC(C)C(=O)N(C)c2ccccc2)cc1 (configuration not stated) ?
Result: NO

###

STUDY_TARGET: Mucolipin-3 (Homo sapiens) (UniProt Q8TDD5)
TEST_NAME: human TRPML3 channel agonists, primary screen, cell-based, HEK293 TRPML3-YFP, Fluo-8 calcium fluorescence, 3 µM (AID 1448)
DETAILS: at 3 µM, 100% = the carbachol control signal
The whole screen tested about 220,000 compounds, of which about 630 (0.29%) were called active.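 Rule for the calls: active = activation above its plate's cutoff, the mean activation of the plate's test wells plus 3 SD (cut at about 12% in these data); inactive = the rest.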 For the sample, actives were picked, then their nearest neighbours and some compounds at random.
Would you mind answering with one of these outcomes? TRUE (active), FALSE (inactive)

Check out these entries, answers already filled in.
MOLECULE	GROUP
CCN(CC)S(=O)(=O)c1ccc2c3c(cccc13)C(=O)S2	TRUE
CC1=CC2=NC(=O)/C(=C/c3coc4ccccc4c3=O)C(=N)N2O1	TRUE
CCn1c(CSc2ncccn2)nnc1SCC(=O)N1c2ccccc2CC1C (configuration not stated)	FALSE

Task: Any idea what this test logged for Cc1ccc(O)c(NC(=O)COc2cc(C)ccc2C)c1 ?
Result: FALSE

Task: Any idea what this test logged for CCCN(C(=O)CSc1nnnn1C)c1c(N)n(Cc2ccccc2)c(=O)[nH]c1=O ?
Result: FALSE

Task: Any idea what this test logged for CCc1c(C)nc2c(-c3ccccc3)c(C)nn2c1Nc1ccc(NC(C)=O)cc1 ?
Result: FALSE

Task: Any idea what this test logged for COc1ccc(S(=O)(=O)N2CCCCC2)cc1Br ?
Result: FALSE

Task: Any idea what this test logged for CN(c1ccccc1)c1ccc(/C=c2\s/c(=C(/C#N)C(=O)C(C)(C)C)n(Cc3ccco3)c2=O)cc1 ?
Result: TRUE

Task: Any idea what this test logged for COc1ccc(C2(CNC(=O)C(c3ccccc3)c3ccccc3)CCOCC2)cc1OC ?
Result: FALSE

Task: Any idea what this test logged for CCN(CC)C(=O)CSc1nc2ccccc2n1CC(=O)N1CCN(c2ccccc2OC)CC1 ?
Result: FALSE

Task: Any idea what this test logged for C[C@@H](NC(=O)OC(C)(C)C)c1nnc(S(=O)(=O)Cc2ccccc2)o1 ?
Result: FALSE

Task: Any idea what this test logged for NC(=O)c1ccc(NC(=O)COC(=O)c2c3c(nc4ccccc24)/C(=C\c2ccc4c(c2)OCO4)CCC3)cc1 ?
Result: TRUE

Task: Any idea what this test logged for CCn1c(Cc2ccccc2)nnc1SCC(=O)Nc1ccccc1 ?
Result: FALSE

Task: Any idea what this test logged for CCOC(=O)c1c(-c2ccccc2)csc1NC(=S)NC(=O)c1ccccc1 ?
Result: FALSE

Task: Any idea what this test logged for CC1=CC(C)(C)N(C(=O)CSc2nccn2C)c2cc(C)ccc21 ?
Result: FALSE

Task: Any idea what this test logged for COc1ccc(S(=O)(=O)N2CCOCC2)c(C)c1C ?
Result: FALSE

Task: Any idea what this test logged for CCCc1nnc(SCC(=O)N2C(C)CCCC2C)n1CC (configuration not stated) ?
Result: TRUE

Task: Any idea what this test logged for COc1ccc(N=C(C)c2sc3ccccc3c2O)cc1 ?
Result: FALSE

Task: Any idea what this test logged for O=C(CC(O)(C(F)(F)F)C(F)(F)F)Nc1ccc(Cl)c(Cl)c1 ?
Result: TRUE

###

STUDY_TARGET: Mucolipin-3 (Homo sapiens) (UniProt Q8TDD5)
TEST_NAME: human TRPML3 channel agonists, primary screen, cell-based, HEK293 TRPML3-YFP, Fluo-8 calcium fluorescence, 3 µM (AID 1448)
DETAILS: at 3 µM, 100% = the carbachol control signal
Hit rate of the full screen: of about 220,000 compounds, about 630 (0.29%) were called active.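 How the source made its calls: active means activation above its plate's cutoff, the mean activation of the plate's test wells plus 3 SD (cut at about 12% in these data); inactive means the rest.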 For the sample, actives were picked, then their nearest neighbours and some compounds at random.
Would you mind answering with one of these outcomes? 1 = active, 0 = inactive

Check out these entries, answers already filled in.
COMPOUND	GROUP
Cn1cccc1/C=N/NC(=O)c1ccc(OC(F)(F)C(F)F)cc1	0
Cc1ccccc1C(=O)NNC(=O)CN1C(=O)c2ccccc2C1=O	0
c1ccc2c(C[n+]3csc4ccccc43)cccc2c1	1
Cc1ccc(NC(=O)CN(C)CC(=O)Nc2cccc(F)c2)cc1[N+](=O)[O-]	0
CC1CCCC(C)N1C(=O)CN1CCN(c2nc(-c3ccc(F)cc3)cs2)CC1 (centres undefined)	1

Task: Any idea what this test logged for Cc1cc(C)nc(/N=C2\NC(=O)CC(C(=O)O)N2c2ccc(Cl)cc2Cl)n1 (centres undefined) ?
Result: 0

Task: Any idea what this test logged for O=C(NC(CC(=O)N1CCN(c2ccccc2)CC1)c1ccccc1)c1ccccc1Cl (centres undefined) ?
Result: 0

Task: Any idea what this test logged for CC1=C(C)CC2C(=O)N(c3cccc4ccccc34)C(=O)C2C1 (centres undefined) ?
Result: 0

Task: Any idea what this test logged for CC(C)CN(CC(C)C)CC(O)CN(c1ccccc1)S(=O)(=O)c1ccccc1[N+](=O)[O-] (centres undefined) ?
Result: 0

Task: Any idea what this test logged for S=c1nc(C23CC4CC(CC(C4)C2)C3)nc2sccn12 ?
Result: 0

Task: Any idea what this test logged for COC(=O)C1=C(C)N(c2ccc(Br)cc2)C(=O)/C1=C\c1ccco1 ?
Result: 0

Task: Any idea what this test logged for Nc1scc[n+]1Cc1cccc2cccnc12 ?
Result: 0

Task: Any idea what this test logged for Cc1ccc(N2C(=O)C3CC3C2=O)cc1 (centres undefined) ?
Result: 0

Task: Any idea what this test logged for CN(CC(=O)Nc1cccc(F)c1)CC(=O)Nc1cccc([N+](=O)[O-])c1 ?
Result: 1
